Target: T1, cynomolgus monkey B7-H4 (recombinant, BLI) (cynomolgus monkey, UniProt Q7Z7D3 25-259 (human entry))
T1 construct: also called Cynomolgus B7-H4
T1 sequence: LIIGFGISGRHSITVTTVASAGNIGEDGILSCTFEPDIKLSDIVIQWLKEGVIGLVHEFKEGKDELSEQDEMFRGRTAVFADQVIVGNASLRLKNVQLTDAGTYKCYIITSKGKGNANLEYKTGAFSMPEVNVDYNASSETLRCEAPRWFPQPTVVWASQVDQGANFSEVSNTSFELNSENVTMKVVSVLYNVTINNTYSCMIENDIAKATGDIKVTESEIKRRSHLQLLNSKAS
Experiment: BLI, antigen on Protein A tips;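 also: Anti-B7-H4 antibodies assessed for affinity toward the B7-H4 extracellular domain using biolayer interferometry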
Quick reference: pKd of the listed items.
Notebook: values listed as pKd are -log10 of the concentration (mol/L).

Below, each entry is followed by its recorded pKd result.
# binder, recorded-number
records = [
    ("B7-H4 antibody 22216 (antibody, human IgG1, kappa, V domains shown, human IgG1/kappa) VH: QVQLQESGPGLVKPSQTLSLTCTVSGGSISDGSYYWSWIRQHPGKGLEWIGNIYYSGSTYYNPSLRSRVTMSVDTSKNQFSLKLSSVTAADTAVYYCARGLSTIDEAFDPWGQGTLVTVSS VL: DIQMTQSPSTLSASVGDRVTITCRASKSISSWLAWYQQKPGKAPKLLIYEASSLHSGVPSRFSGSGSGTEFTLTISSLQPDDFATYYCQQDNSYPYTFGGGTKVEIKR", 8.83),
    ("B7-H4 antibody 15489 (antibody, human IgG1, kappa, V domains shown, human IgG1/kappa) VH: QVQLQESGPGLVKPSETLSLTCTVSGGSISSYYWSWIRQPPGKGLEWIGYIYSSGSTNYNPSLKSRVTISVDTSKNQFSLKLSSVTAADTAVYYCARGSGQYAAPDYGMDVWGQGTTVTVSS VL: DIQMTQSPSTLSASVGDRVTITCRASQSISSWLAWYQQKPGKAPKLLIYKASSLESGVPSRFSGSGSGTEFTLTISSLQPDDFATYYCQQDNSFPFTFGGGTKVEIKR", 7.14),
    ("B7-H4 antibody 22208 (antibody, human IgG1, kappa, V domains shown, human IgG1/kappa) VH: QLQLQESGPGLVKPSETLSLTCTVSGGSIKSGSHYWGWIRQPPGKGLEWIGNIYYSGSTYYNPSLKSRVTMSVDTSKNQFSLKLSSVTAADTAVYYCAREGSYPNWFDPWGQGTLVTVSS VL: EIVMTQSPATLSVSPGERATLSCRASQSVSTNLAWYQQKPGQAPRLLIYDASARVTGIPARFSGSGSGTEFTLTISSLQSEDFAVYYCQQYHSFPFTFGGGTKVEIKR", 8.26),
    ("B7-H4 antibody 15461 (antibody, human IgG1, kappa, V domains shown, human IgG1/kappa) VH: QLQLQESGPGLVKPSETLSLTCTVSGGSISSSSYYWGWIRQPPGKGLEWIGNIYYSGSTYYNPSLKSRVTISVDTSKNQFSLKLSSVTAADTAVYYCAREGSYPNWFDPWGQGTLVTVSS VL: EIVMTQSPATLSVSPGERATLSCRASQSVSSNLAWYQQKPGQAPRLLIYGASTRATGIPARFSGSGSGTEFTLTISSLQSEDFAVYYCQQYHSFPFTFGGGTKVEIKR", 7.21),
    ("B7-H4 antibody 20501 (antibody, human IgG1, kappa, V domains shown, human IgG1/kappa) VH: QLQLQESGPGLVKPSETLSLTCTVSGGSIKSGSHYWGWIRQPPGKGLEWIGNIYYSGSTYYNPSLKSRVTISVDTSKNQFSLKLSSVTAADTAVYYCAREGSYPNWLDPWGQGTLVTVSS VL: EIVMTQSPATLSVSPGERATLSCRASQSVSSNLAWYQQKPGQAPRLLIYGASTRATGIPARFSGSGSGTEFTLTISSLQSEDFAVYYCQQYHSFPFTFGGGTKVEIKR", 8.62),
    ("B7-H4 antibody 20500 (antibody, human IgG1, kappa, V domains shown, human IgG1/kappa) VH: QLQLQESGPGLVKPSETLSLTCTVSGGSIKSGSHYWGWIRQPPGKGLEWIGNIYYSGSTYYNPSLRSRVTISVDTSKNQFSLKLSSVTAADTAVYYCAREGSYPNWFDPWGQGTLVTVSS VL: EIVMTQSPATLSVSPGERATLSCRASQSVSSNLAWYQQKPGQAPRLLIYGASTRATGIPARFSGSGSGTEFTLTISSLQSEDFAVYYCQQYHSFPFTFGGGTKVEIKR", 8.26),
    ("B7-H4 antibody 15465 (antibody, human IgG1, kappa, V domains shown, human IgG1/kappa) VH: QVQLQESGPGLVKPSQTLSLTCTVSGGSISSGGYYWSWIRQHPGKGLEWIGNIYYSGSTYYNPSLKSRVTISVDTSKNQFSLKLSSVTAADTAVYYCARESSTISADFDLWGRGTLVTVSS VL: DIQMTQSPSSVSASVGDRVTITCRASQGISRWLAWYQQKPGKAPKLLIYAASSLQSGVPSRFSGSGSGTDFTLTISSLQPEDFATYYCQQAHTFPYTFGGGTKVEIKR", 7.29),
]

Now for a further binder.
Query: pKd; subject: B7-H4 antibody 20502 (antibody, V domains shown, human IgG1/kappa) VH: QLQLQESGPGLVKPSETLSLTCTVSGGSIKSGSYYWGWIRQPPGKGLEWIGNIYYSGSTYYNPSLRSRVTISVDTSKNQFSLKLSSVTAADTAVYYCAREGSYPNQFDPWGQGTLVTVSS VL: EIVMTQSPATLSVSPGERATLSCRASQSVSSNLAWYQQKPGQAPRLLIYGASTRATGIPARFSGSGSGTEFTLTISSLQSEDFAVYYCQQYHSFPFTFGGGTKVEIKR 8.92

FYI, the data here is from patent US20240043542A1.
